B1: ZNF263 (parent)
chain: FGGNPRFLSLHRAHLGEEAHKCLE

# Variants of: B1
# test-name: protein stability index of a GFP-peptide fusion (GPS, HEK-293T) (PSI 1-6); higher = more stable;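 note: lentivirally expressed fusions sorted by FACS into six bins by GFP to DsRed ratio, PSI derived from sequencing read proportions per bin multiplied by bin number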
# experimental-setup: c terminus: a fixed tail appended

biosequence	protein stability index
FGGNPRFLSLHRAHRGEEAHKCLE [L15R]	2.05
FGGNPRFLTLHRAHLGEEAHKCLE [S9T]	1.8
FGGNPRFLSLHRAQLGEEAHKCLE [H14Q]	2.6
FGGNPRFLSLHRAHLGEECHKCLE [A19C]	2.48
FGGTPRFLSLHRAHLGEEAHKCLE [N4T]	1.66
FGGNPRFLSLHRAHMGEEAHKCLE [L15M]	1.62
FGGNPRFLSLHRAHLGEEAHKCRE [L23R]	1.7
FGGNPRFVSLHRAHLGEEAHKCLE [L8V]	2.5
FGGNPRFLSLHRARLGEEAHKCLE [H14R]	1.24
FGGNPRFLSLHRAHLGEEAHKCLV [E24V]	2.88
FGGNPRFLSLHRAHLSEEAHKCLE [G16S]	2.06
